Reference for the values: PubChem BioAssay (EPA / NIEHS)

Read-out: Insulin Like Growth Factor 1 (IGF1), IGF1 (gene 3479)
Protocol text: LTEA_HepaRG_IGF1: Life Technologies and Expression Analysis (LTEA) Assay for Insulin Like Growth Factor 1 (IGF1) using HepaRG (AID 2283506)
Details: mRNA level, 48 h; actives raise or lower the signal
The source made the active and inactive calls. The calls were made as follows: active = hit-call score of the fitted dose curve at least 0.9, where 1 is the maximum; inactive = score below 0.9.
Outcome codes: Y (active), N (inactive)

Compound | Group
COCC(=O)N(c1c(C)cccc1C)C(C)C(=O)OC (centres undefined) | N
COC(=O)NC(=S)Nc1ccccc1NC(=S)NC(=O)OC | Y
CCCCC(O)(Cn1cncn1)c1ccc(Cl)cc1Cl (centres undefined) | Y
Clc1nc(Cl)nc(Nc2ccccc2Cl)n1 | N
Nc1c(Cl)c(F)nc(OCC(=O)O)c1Cl | N
C=CCOC(=O)C(C)(C)OC(=O)c1cc(-n2c(=O)cc(C(F)(F)F)n(C)c2=O)ccc1Cl | N
COCc1cnc(C2=NC(C)(C(C)C)C(=O)N2)c(C(=O)O)c1 (centres undefined) | N
O=C(O)c1c(Cl)ccc2cc(Cl)cnc12 | N
CC(C)Oc1cccc(NC(=O)c2ccccc2C(F)(F)F)c1 | Y
CC1(C)C(C=C(Cl)Cl)C1C(=O)OC(C#N)c1cccc(Oc2ccccc2)c1 (centres undefined) | Y
CCNP(=S)(OC)O/C(C)=C/C(=O)OC(C)C (centres undefined) | Y
CS(=O)(=O)c1ccc(C(=O)C2C(=O)CCCC2=O)c([N+](=O)[O-])c1 | N
Cc1c(COC(=O)[C@@H]2[C@H](/C=C(\Cl)C(F)(F)F)C2(C)C)cccc1-c1ccccc1 | Y
CC1(C)CCC(=Cc2ccc(Cl)cc2)C1(O)Cn1cncn1 (centres undefined) | Y
CC1(C)C(C(=O)OC(C#N)c2cccc(Oc3ccccc3)c2)C1(C)C (centres undefined) | N
CCOC(=O)C(C)OC(=O)c1cc(Oc2ccc(C(F)(F)F)cc2Cl)ccc1[N+](=O)[O-] (centres undefined) | Y
Clc1cccc(C(Cl)(Cl)Cl)n1 | N
CSC(=O)c1c(C(F)F)nc(C(F)(F)F)c(C(=O)SC)c1CC(C)C | Y
CC(C)Nc1nc(Cl)nc(NC(C)C)n1 | N
COP(=O)(OC)O/C(C)=C/C(=O)N(C)C | N
CNC(=O)Oc1cccc2ccccc12 | N
COC(=O)NS(=O)(=O)c1ccc(N)cc1 | N
OC(c1ccc(Cl)cc1)(c1ccc(Cl)cc1)C(Cl)(Cl)Cl | Y
COP(=S)(OC)SCn1nnc2ccccc2c1=O | N
O=c1n(Cl)c(=O)n(Cl)c(=O)n1Cl | N
C=C(C)CN(CC)c1c([N+](=O)[O-])cc(C(F)(F)F)cc1[N+](=O)[O-] | N
CC(C)NC(=O)N1CC(=O)N(c2cc(Cl)cc(Cl)c2)C1=O | Y
CCN(CC)c1nc(C)cc(OP(=S)(OC)OC)n1 | N
N#Cc1c[nH]cc1-c1cccc2c1OC(F)(F)O2 | N
COc1ccc(-c2ccccc2)cc1NNC(=O)OC(C)C | N
CCCCOCN(C(=O)CCl)c1c(CC)cccc1CC | Y
CCOc1nc(F)cc2nc(S(=O)(=O)Nc3c(Cl)cccc3Cl)nn12 | Y
CCOc1cc(C(C)(C)C)ccc1C1COC(c2c(F)cccc2F)=N1 (centres undefined) | Y
Cc1nc(N(C)C)nc(OC(=O)N(C)C)c1C | N

* * *

Read-out: Cytochrome P450 3A4 (Homo sapiens) (UniProt P08684)
Sequence (P08684 whole entry, looked up): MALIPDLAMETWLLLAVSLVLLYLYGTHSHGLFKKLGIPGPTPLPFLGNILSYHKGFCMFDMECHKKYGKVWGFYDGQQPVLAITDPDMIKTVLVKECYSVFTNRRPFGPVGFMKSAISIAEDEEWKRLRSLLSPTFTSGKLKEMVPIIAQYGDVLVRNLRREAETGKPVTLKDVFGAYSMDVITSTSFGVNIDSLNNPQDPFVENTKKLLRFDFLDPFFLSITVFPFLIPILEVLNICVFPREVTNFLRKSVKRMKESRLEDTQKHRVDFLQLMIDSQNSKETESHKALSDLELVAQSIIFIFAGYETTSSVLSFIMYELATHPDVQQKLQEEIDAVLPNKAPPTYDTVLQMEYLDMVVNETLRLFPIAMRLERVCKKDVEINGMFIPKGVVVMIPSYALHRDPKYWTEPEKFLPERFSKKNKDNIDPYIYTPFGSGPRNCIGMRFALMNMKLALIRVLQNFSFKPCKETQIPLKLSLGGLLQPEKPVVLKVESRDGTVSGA
Protocol text: CLD_CYP3A4_6hr: CellzDirect (CLD) Gene Expression Assay for xenobiotic metabolism (CYP3A4) at 6 hours (AID 2283680)
Results filed as inconclusive are left out. Activity calls are given as the source filed them. Rule for the calls: active = hit-call score of the fitted dose curve at least 0.9, where 1 is the maximum; inconclusive = response in the unintended direction; inactive = score below 0.9.
Outcome codes: Yes = active, No = inactive

Entry smiles | Group
Cc1nc(N(C)C)nc(OC(=O)N(C)C)c1C | Yes
O=c1n(Cl)c(=O)n(Cl)c(=O)n1Cl | No
CO/N=C(/C1=NOCCO1)c1ccccc1Oc1ncnc(Oc2ccccc2Cl)c1F | No

* * *

Protocol text: ATG_Sox_CIS: Attagene CIS-FACTORIAL HepG2 Assay for human SRY-box transcription factor (SOX) (AID 2282960)
Details: HepG2 Attagene cis-factorial SOX reporter, mRNA; actives raise or lower the signal
Active and inactive are the calls of the source. Rule for the calls: active = hit-call score of the fitted dose curve at least 0.9, where 1 is the maximum; inactive = score below 0.9.

Entry smiles | outcome
C=C(C)CN(CC)c1c([N+](=O)[O-])cc(C(F)(F)F)cc1[N+](=O)[O-] | inactive
COC(=O)NS(=O)(=O)c1ccc(N)cc1 | inactive
CS(=O)(=O)c1cc(C(F)(F)F)ccc1C(=O)c1cnoc1C1CC1 | inactive

* * *

Read-out: catalase (CAT), CAT (gene 847)
Protocol text: LTEA_HepaRG_CAT: Life Technologies and Expression Analysis (LTEA) Assay for catalase (CAT) using HepaRG (AID 2283452);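 as to AC50: TaqMan qRT-PCR signal normalized to ACTB GAPDH and POLR2A housekeeping genes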
Details: mRNA level, 48 h; actives raise or lower the signal
Active and inactive are the calls of the source. Rule for the calls: active = hit-call score of the fitted dose curve at least 0.9, where 1 is the maximum; inactive = score below 0.9.

Compound | AC50
CC1(C)CCC(=Cc2ccc(Cl)cc2)C1(O)Cn1cncn1 (stereo not drawn) | inactive
Cc1c(COC(=O)[C@@H]2[C@H](/C=C(\Cl)C(F)(F)F)C2(C)C)cccc1-c1ccccc1 | inactive
CC(C)Nc1nc(Cl)nc(NC(C)C)n1 | 16.8 µM (active)
O=C(Nc1ccccc1-c1ccc(Cl)cc1)c1cccnc1Cl | inactive
OC(c1ccc(Cl)cc1)(c1ccc(Cl)cc1)C(Cl)(Cl)Cl | 71.2 µM (active)
COCC(=O)N(c1c(C)cccc1C)C(C)C(=O)OC (stereo not drawn) | inactive
CCCN(CC)CC1COC2(CCC(C(C)(C)C)CC2)O1 (stereo not drawn) | inactive
CC(C)NC(=O)N1CC(=O)N(c2cc(Cl)cc(Cl)c2)C1=O | 13.3 µM (active)
CC1(C)C(C(=O)OC(C#N)c2cccc(Oc3ccccc3)c2)C1(C)C (stereo not drawn) | inactive
O=C(O)c1c(Cl)ccc2cc(Cl)cnc12 | inactive
Clc1nc(Cl)nc(Nc2ccccc2Cl)n1 | inactive
CC(C)N1C(=O)N(c2ccccc2)CSC1=NC(C)(C)C | 75.4 µM (active)
CCOc1nc(C(Cl)(Cl)Cl)ns1 | inactive
CS(=O)(=O)c1ccc(C(=O)C2C(=O)CCCC2=O)c([N+](=O)[O-])c1 | inactive
N#Cc1c(Cl)cccc1Cl | inactive
CCNP(=S)(OC)O/C(C)=C/C(=O)OC(C)C (stereo not drawn) | inactive
Nc1c(Cl)c(Cl)nc(C(=O)O)c1Cl | inactive
Nc1c(Cl)c(F)nc(OCC(=O)O)c1Cl | inactive

* * *

Protocol text: ATG_VDRE_CIS: Attagene CIS-FACTORIAL HepG2 Assay for human Vitamin D Receptor Element (VDRE) (AID 2282968)
Details: HepG2 VDRE cis-reporter transcription, actives raise or lower the signal
Calls of active or inactive are those of the source. Rule for the calls: active = hit-call score of the fitted dose curve at least 0.9, where 1 is the maximum; inactive = score below 0.9.
Outcome codes: 1 (active), 0 (inactive)

Molecule | Group
CC(C)(C)C(=O)C(Oc1ccc(Cl)cc1)n1cncn1 (stereo unspecified) | 1
CCN(CC)c1nc(C)cc(OP(=S)(OC)OC)n1 | 1
CN/C(=N\[N+](=O)[O-])NCc1cnc(Cl)s1 | 0
COc1ccc(-c2ccccc2)cc1NNC(=O)OC(C)C | 1
COC(=O)NC(=S)Nc1ccccc1NC(=S)NC(=O)OC | 1
CC(C)=CC1C(C(=O)OCc2coc(Cc3ccccc3)c2)C1(C)C (stereo unspecified) | 1

* * *

Assay target: human Constitutive Androstane Receptor (CAR), NR1I3 (gene 9970)
Protocol text: NVS_NR_hCAR_Antagonist: NovaScreen (NVS) Nuclear Receptor Binding Assay for human Constitutive Androstane Receptor Antagonism (CAR) (AID 2283344)
Records with an inconclusive call do not appear. Calls of active or inactive are those of the source. Rule for the calls: active = hit-call score of the fitted dose curve at least 0.9, where 1 is the maximum; inconclusive = response in the unintended direction; inactive = score below 0.9.
Outcome codes: yes for active, no for inactive

Molecule | Group
CC(C)=CC1C(C(=O)OCc2coc(Cc3ccccc3)c2)C1(C)C (configuration not stated) | no
COP(=S)(OC)SCn1nnc2ccccc2c1=O | no
CCOc1cc(C(C)(C)C)ccc1C1COC(c2c(F)cccc2F)=N1 (configuration not stated) | no
CN=C=S | no
CCN(CC)C(=O)C(C)Oc1cccc2ccccc12 (configuration not stated) | yes
N#Cc1c(Cl)cccc1Cl | no
CC(C)C1(C)N=C(c2ncccc2C(=O)O)NC1=O (configuration not stated) | no

* * *

Read-out: Tumor necrosis factor receptor 1 (TNFRSF1A), TNFRSF1A (gene 7132)
Protocol text: LTEA_HepaRG_TNFRSF1A: Life Technologies and Expression Analysis (LTEA) Assay for Tumor necrosis factor receptor 1 (TNFRSF1A) using HepaRG (AID 2283535)
Details: mRNA level, 48 h; actives raise or lower the signal
Calls of active or inactive are those of the source. How the source made its calls: active means hit-call score of the fitted dose curve at least 0.9, where 1 is the maximum; inactive means score below 0.9.
Outcome codes: active, inactive

Compound | Group
O=c1n(Cl)c(=O)n(Cl)c(=O)n1Cl | inactive
CC(C)N1C(=O)c2ccccc2NS1(=O)=O | inactive
CC(C)NC(=O)N1CC(=O)N(c2cc(Cl)cc(Cl)c2)C1=O | inactive
C=CCOC(=O)C(C)(C)OC(=O)c1cc(-n2c(=O)cc(C(F)(F)F)n(C)c2=O)ccc1Cl | inactive
O=P(O)(O)CCCl | inactive
CCCCOCN(C(=O)CCl)c1c(CC)cccc1CC | inactive
COC(=O)NC(=S)Nc1ccccc1NC(=S)NC(=O)OC | inactive
COc1ccc(-c2ccccc2)cc1NNC(=O)OC(C)C | inactive
CCNC(=O)NC(=O)C(C#N)=NOC | active
CS(=O)(=O)c1ccc(C(=O)C2C(=O)CCCC2=O)c([N+](=O)[O-])c1 | inactive
CC(C)(C)C(=O)C(Oc1ccc(Cl)cc1)n1cncn1 (stereo not drawn) | inactive
CO/N=C(/C1=NOCCO1)c1ccccc1Oc1ncnc(Oc2ccccc2Cl)c1F | inactive
Clc1cccc(C(Cl)(Cl)Cl)n1 | inactive
COC(=O)N(C(=O)N1CO[C@@]2(C(=O)OC)Cc3cc(Cl)ccc3C2=N1)c1ccc(OC(F)(F)F)cc1 | inactive
CC1(C)CON(Cc2ccccc2Cl)C1=O | inactive
Cc1ccc(N=CN(C)C=Nc2ccc(C)cc2C)c(C)c1 | inactive
CCOP(=S)(OCC)Oc1nc(Cl)n(C(C)C)n1 | inactive
CCCCC(O)(Cn1cncn1)c1ccc(Cl)cc1Cl (stereo not drawn) | inactive
CC1(C)C(C(=O)OC(C#N)c2cccc(Oc3ccccc3)c2)C1(C)C (stereo not drawn) | inactive
CS(=O)(=O)c1cc(C(F)(F)F)ccc1C(=O)c1cnoc1C1CC1 | inactive
COP(=S)(OC)SCn1nnc2ccccc2c1=O | inactive
O=C(Nc1ccccc1-c1ccc(Cl)cc1)c1cccnc1Cl | inactive
CCNP(=S)(OC)O/C(C)=C/C(=O)OC(C)C (stereo not drawn) | inactive
